Test system: A3-KAW;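 further: growth inhibition of human A3-KAW cells, read out with a cell viability assay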
EXPERIMENT: cells
Type: functional, cell-based, Homo sapiens
EXPERIMENTAL CONDITIONS: a3-kaw
Description: SANGER: Inhibition of human A3-KAW cell growth in a cell viability assay.
pIC50: −log10 of the molar value. Where a SMILES comes first, the peptide text is derived from it. The star is where a group is joined. Cbz = O=C(OCc1ccccc1)*
METRIC: pIC50

Give recorded pIC50 with A3-KAW for the following compound: CC(C)C[C@@H](C=O)NC(=O)[C@H](CC(C)C)NC(=O)[C@H](CC(C)C)NC(=O)OCc1ccccc1 [MG-132] (Cbz-Leu-Leu-Leu-aldehyde)
< 6.00

* * *

Catalogue of IC50 readings, one per entry.
System: NCI-H1650;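 further: growth inhibition of human NCI-H1650 cells measured by a cell viability assay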
EXPERIMENT: cells
Format: functional, cell-based, Homo sapiens
EXPERIMENTAL CONDITIONS: Homo sapiens, NCI-H1650
Description: SANGER: Inhibition of human NCI-H1650 cell growth in a cell viability assay.

Below, 3 compounds whose answers are already recorded.
COMPOUND	IC50
CN(C)CCOc1ccc(-c2nc(-c3ccncc3)c(-c3ccc4c(c3)CC/C4=N\O)[nH]2)cc1 [SB590885]	> 5 µM
CC1=C(/C=C/C(C)=C/C=C/C(C)=C/C(=O)O)C(C)(C)CCC1 [TRETINOIN]	> 10 µM
OC[C@H](Cc1ccccc1)Nc1nc(Oc2ccc3c(c2)CCC3)nc2c1ncn2Cc1ccc(-c2ccccc2)cc1	> 10.2 µM

# ---- query compound ----
Give recorded IC50 with NCI-H1650 for the following compound: NC(=O)Nc1cc(-c2cccc(F)c2)sc1C(=O)N[C@H]1CCCNC1 [AZD-7762]
1.04 µM

* * *

Catalogue of IC50 readings, one per entry.
System: BB65-RCC;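 further: growth inhibition of the cell line, measured with a cell viability assay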
EXPERIMENT: cells
Assay type: functional, cell-based, Homo sapiens
EXPERIMENTAL CONDITIONS: Homo sapiens, BB65-RCC
Description: SANGER: Inhibition of human BB65-RCC cell growth in a cell viability assay.

Below, 2 compounds whose answers are already recorded.
CN(NC(=O)CC(=O)NN(C)C(=S)c1ccccc1)C(=S)c1ccccc1 24.2 nM
Cc1ccc(C(=O)Nc2ccc(CN3CCN(C)CC3)c(C(F)(F)F)c2)cc1C#Cc1cnc2cccnn12 > 512 nM

Give recorded IC50 with BB65-RCC for the following compound: O=S(=O)(O)c1ccc2cc(/N=N/c3cc(S(=O)(=O)O)c4cccnc4c3O)ccc2c1
> 16000 nM

* * *

System: SCC-15
EXPERIMENT: cells
Format: functional, cell-based, Homo sapiens
EXPERIMENTAL CONDITIONS: Homo sapiens, SCC-15
Description: SANGER: Inhibition of human SCC-15 cell growth in a cell viability assay.
METRIC: IC50 (µM)
All answers are understood in µM, so give the number only.

MOLECULE	SYSTEM NAME	IC50, µM
CC1=C(/C=C/C(C)=C/C=C/C(C)=C/C(=O)O)C(C)(C)CCC1 [TRETINOIN]	SCC-15	9.35

# ---- query molecule ----
# lookup: IC50 of CCCCCCCCCCCC1=C(O)C(=O)C=C(O)C1=O [EMBELIN]
7.81

* * *

System: CFPAC-1;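 further: cell viability readout used to gauge suppression of CFPAC-1 cell proliferation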
EXPERIMENT: cells
Format: functional, cell-based
EXPERIMENTAL CONDITIONS: Homo sapiens
Description: SANGER: Inhibition of human CFPAC-1 cell growth in a cell viability assay.
pIC50: −log10 of the molar value.
METRIC: pIC50

COMPOUND	OBS VALUE
NC(=O)c1ccc(N(C(N)=O)c2c(F)cccc2F)nc1-c1ccc(F)cc1F [VX-702]	< 5.70

# ---- query compound ----
# lookup: pIC50 of O=C1NC(=O)c2c1c(-c1ccccc1Cl)cc1[nH]c3ccc(O)cc3c21
< 5.70

* * *

Test system: RH-1
EXPERIMENT: cells
Type: functional, cell-based, Homo sapiens
EXPERIMENTAL CONDITIONS: Homo sapiens, RH-1
Description: SANGER: Inhibition of human RH-1 cell growth in a cell viability assay.
pIC50: −log10 of the molar value.
METRIC: pIC50

Below, 4 compounds whose answers are already recorded.
COMPOUND	pIC50
CS(=O)(=O)N1CCN(Cc2cc3nc(-c4cccc5[nH]ncc45)nc(N4CCOCC4)c3s2)CC1 [PICTILISIB]	< 5.40
Cc1ccc(NC(=O)c2ccc(CN3CCN(C)CC3)cc2)cc1Nc1nccc(-c2cccnc2)n1 [IMATINIB]	< 5.70
CC(C)C[C@H](NC(=O)[C@H](Cc1ccccc1)NC(=O)c1cnccn1)B(O)O [BORTEZOMIB]	< 7.70
Cc1ccc(C(=O)Nc2ccc(CN3CCN(C)CC3)c(C(F)(F)F)c2)cc1C#Cc1cnc2cccnn12 [PONATINIB]	< 6.29

# ---- query compound ----
# lookup: pIC50 of COc1ccc(N(C(=O)Oc2c(C)cccc2C)c2ccnc(Nc3ccc(N4CCN(C)CC4)cc3)n2)c(OC)c1
< 5.29

* * *

Test system: NCI-H446;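 further: growth inhibition of NCI-H446 cells determined by a cell viability assay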
EXPERIMENT: cells
Assay type: functional, cell-based, Homo sapiens
EXPERIMENTAL CONDITIONS: Homo sapiens, NCI-H446
Description: SANGER: Inhibition of human NCI-H446 cell growth in a cell viability assay.
Where a SMILES comes first, the peptide text is derived from it. The star is where a group is joined. Cbz = O=C(OCc1ccccc1)*
METRIC: IC50

COMPOUND	METRIC	OBS VALUE
Cc1ccc(-n2nc(C(C)(C)C)cc2NC(=O)Nc2ccc(OCCN3CCOCC3)c3ccccc23)cc1	IC50	> 10 µM
COC(=O)[C@H](CCSC)NC(=O)c1ccc(NC[C@@H](N)CS)cc1-c1ccccc1	IC50	> 1.02 µM
C=CC(=O)N1CCCC(Nc2nc(Nc3ccc(N(C)C(=O)CC)cc3)nc3[nH]cnc23)C1 (stereo not given)	IC50	> 10.2 µM
CN(NC(=O)CC(=O)NN(C)C(=S)c1ccccc1)C(=S)c1ccccc1	IC50	0.0901 µM
CC1=C(/C=C/C(C)=C/C=C/C(C)=C/C(=O)O)C(C)(C)CCC1	IC50	> 10 µM

# lookup: IC50 of Cc1cc(N2CCOCC2)cc2[nH]c(-c3c(NC[C@@H](O)c4cccc(Cl)c4)cc[nH]c3=O)nc12
> 5.12 µM

Another compound to check: O=C(NCCCNc1nc(Nc2cccc(NC(=O)N3CCCC3)c2)ncc1I)c1cccs1
4.93 µM

Another compound to check: CC(C)C[C@@H](C=O)NC(=O)[C@H](CC(C)C)NC(=O)[C@H](CC(C)C)NC(=O)OCc1ccccc1 [MG-132] (Cbz-Leu-Leu-Leu-aldehyde)
> 1 µM

Another compound to check: O=C1NC(=O)c2c1c(-c1ccccc1Cl)cc1[nH]c3ccc(O)cc3c21
> 2 µM

Another compound to check: Cc1ccc(C(=O)Nc2ccc(CN3CCN(C)CC3)c(C(F)(F)F)c2)cc1C#Cc1cnc2cccnn12
> 0.512 µM

* * *

Test system: MFE-296
EXPERIMENT: SANGER: Inhibition of human MFE-296 cell growth in a cell viability assay.
Assay type: functional, cell-based
Catalogue of pIC50 readings, one per entry.
Expect pIC50 as a plain number equal to -log10 of the molar concentration.

Cc1ccc(C(=O)Nc2ccc(CN3CCN(C)CC3)c(C(F)(F)F)c2)cc1C#Cc1cnc2cccnn12 6.93

# lookup: pIC50 of CCCCCCCCCCCC1=C(O)C(=O)C=C(O)C1=O
4.84

* * *

Catalogue of pIC50 readings, one per entry.
System: SW1417
EXPERIMENT: cells
Type: functional, cell-based
EXPERIMENTAL CONDITIONS: Homo sapiens
Description: SANGER: Inhibition of human SW1417 cell growth in a cell viability assay.
pIC50: −log10 of the molar value.

CC1(C)CCC(c2ccc(Cl)cc2)=C(CN2CCN(c3ccc(C(=O)NS(=O)(=O)c4ccc(N[C@H](CCN5CCOCC5)CSc5ccccc5)c(S(=O)(=O)C(F)(F)F)c4)cc3)CC2)C1 6.26
O=S(=O)(O)c1ccc2cc(/N=N/c3cc(S(=O)(=O)O)c4cccnc4c3O)ccc2c1 < 4.80
CC1=C(/C=C/C(C)=C/C=C/C(C)=C/C(=O)O)C(C)(C)CCC1 < 5.00
COC(=O)[C@H](CCSC)NC(=O)c1ccc(NC[C@@H](N)CS)cc1-c1ccccc1 < 5.99

# ---- query molecule ----
Give recorded pIC50 with SW1417 for the following molecule: O=C(NCCCNc1nc(Nc2cccc(NC(=O)N3CCCC3)c2)ncc1I)c1cccs1
< 5.30

* * *

Tested on: A204
EXPERIMENT: cells
Type: functional, cell-based
EXPERIMENTAL CONDITIONS: Homo sapiens
Description: SANGER: Inhibition of human A204 cell growth in a cell viability assay.
METRIC: IC50 (nM)
All answers are understood in nM, so give the number only.

Below, 3 compounds whose answers are already recorded.
COMPOUND	UNIT INFO	IC50
CN(NC(=O)CC(=O)NN(C)C(=S)c1ccccc1)C(=S)c1ccccc1 [ELESCLOMOL]	nM	8.85
Cc1ccc(C(=O)Nc2ccc(CN3CCN(C)CC3)c(C(F)(F)F)c2)cc1C#Cc1cnc2cccnn12 [PONATINIB]	nM	12.2
NC1(c2ccc(-c3nc4ccn5c(=O)[nH]nc5c4cc3-c3ccccc3)cc2)CCC1 [MK-2206]	nM	2840

# ---- query compound ----
# lookup: IC50 of CCCCCCCCCCCC1=C(O)C(=O)C=C(O)C1=O [EMBELIN]
17400

* * *

Catalogue of pIC50 readings, one per entry.
Tested on: NCI-H720
EXPERIMENT: cells
Format: functional, cell-based, Homo sapiens
EXPERIMENTAL CONDITIONS: Homo sapiens, NCI-H720
Description: SANGER: Inhibition of human NCI-H720 cell growth in a cell viability assay.
Expect pIC50 as a plain number equal to -log10 of the molar concentration.

Below, 3 compounds whose answers are already recorded.
COMPOUND	SYSTEM NAME	pIC50
NC(=O)Nc1cc(-c2cccc(F)c2)sc1C(=O)N[C@H]1CCCNC1 [AZD-7762]	NCI-H720	6.40
O=C1NC(=O)c2c1c(-c1ccccc1Cl)cc1[nH]c3ccc(O)cc3c21	NCI-H720	5.77
NC1(c2ccc(-c3nc4ccn5c(=O)[nH]nc5c4cc3-c3ccccc3)cc2)CCC1 [MK-2206]	NCI-H720	6.42

# ---- query compound ----
Give recorded pIC50 with NCI-H720 for the following compound: NC(=O)c1ccc(N(C(N)=O)c2c(F)cccc2F)nc1-c1ccc(F)cc1F [VX-702]
7.77
